For each entry below, report its melting point value.

Answered examples (3):
{"columns": ["Compound", "Value reported"],
 "data": [
  ["COC1(c2cc(F)cc(OCc3nc(-c4ccc(F)cc4)c(-c4ccc(S(N)(=O)=O)cc4)o3)c2)CCOCC1 [Example 14]", "70 to 72 °C"],
  ["COC1(c2cccc(Oc3nc(-c4ccccc4)c(-c4ccc(S(N)(=O)=O)cc4)o3)c2)CCOCC1 [Example 5]", "145 to 147 °C"],
  ["COC1(c2cc(F)cc(OCc3nc(-c4ccccc4)c(-c4ccc(S(N)(=O)=O)cc4)o3)c2)CCOCC1 [Example 8]", "70 to 80 °C"]
]}

Next item in the queue.
Returns the measured melting point for the input compound. Input: COC1(c2cccc(COCc3nc(-c4ccccc4)c(-c4ccc(S(N)(=O)=O)cc4)o3)c2)CCOCC1 [Example 17]
62.1 to 71.2 °C

* * *

Assay target: 5-lipoxygenase (5-LO) (Homo sapiens)
Construct: calcium ionophore-induced Leukotriene B4 (LTB4) production in human whole blood; endogenous in cells
Experiment notes: Assay for 5-lipoxygenase activity: calcium ionophore-induced LTB4 production in human whole blood
Cond: A-23187 (20 μg/ml)-induced LTB4 in human whole blood; mean IC50
Procedure: Assay for 5-Lipoxygenase Activity The 5-lipoxygenase (5-LO) activity of the compounds were determined by the calcium ionophore-induced Leukotriene B4 (LTB4) production in human whole blood. Venous blood was collected from healthy human donors using heparin as an anti-coagulant. […] The samples were then centrifuged at 800×g at 4° C. for 10 minutes to pellet the cells, and the supernatants were recovered for quantitation of LTB4 by LISA (Cayman Chemical Co.; sensitivity 3 pg/ml). […]
Binarize IC50 at 10 µM; below is Criterion met, at or above is Criterion not met.

{"columns": ["Cpd smiles", "Label value"],
 "data": [
  ["COC1(c2cccc(CSc3nc(-c4ccccc4)c(-c4ccc(S(N)(=O)=O)cc4)o3)c2)CCOCC1", "Criterion not met"],
  ["COC1(c2cccc(OCc3nc(-c4ccc(F)cc4)c(-c4ccc(S(C)(=O)=O)cc4)o3)c2)CCOCC1", "Criterion met"],
  ["COC1(c2cc(F)cc(OCc3nc(-c4ccccc4)c(-c4ccc(S(N)(=O)=O)cc4)o3)c2)CCOCC1", "Criterion met"],
  ["COC1(c2cccc(CSCCc3nc(-c4ccccc4)c(-c4ccc(S(N)(=O)=O)cc4)o3)c2)CCOCC1", "Criterion not met"],
  ["COC1(c2cccc(Oc3nc(-c4ccccc4)c(-c4ccc(S(N)(=O)=O)cc4)o3)c2)CCOCC1", "Criterion not met"]
]}

Hi there! Is IC50 for COC1(c2cc(F)cc(Oc3nc(-c4ccccc4)c(-c4ccc(S(N)(=O)=O)cc4)o3)c2)CCOCC1 below 10 µM, do you know?
Criterion not met

* * *

Assay target: UniProt P23219
Experiment notes: Assay for COX-1 activity in vitro (PGE2 ELISA, recombinant enzyme)
Cond: recombinant COX-1, arachidonic acid 10 μM, pre-incubation 10–20 minutes
Procedure: Evaluation of COX-1 and COX-2 Activity in vitro a. Preparation of Recombinant COX Baculoviruses Recombinant COX-1 and COX-2 were prepared as described by Gierse et al, [J. Biochem., 305, 479–84 (1995)]. […] COX activity was assayed as PGE2 formed/μg protein/time using an ELISA to detect the prostaglandin released. […] The PGE2 formed was measured by standard ELISA technology (Cayman Chemical).
What IC50 was measured for each of the following?

{"columns": ["Molecule", "IC50"],
 "data": [
  ["COC1(c2cccc(CSCCc3nc(-c4ccccc4)c(-c4ccc(S(N)(=O)=O)cc4)o3)c2)CCOCC1 [Example 19]", "2.3 µM"],
  ["COc1cccc(SCc2cc(-c3ccc(Cl)cc3)n(-c3ccc(S(N)(=O)=O)cc3)n2)c1 [Example 6]", "2.2 µM"],
  ["COC1(c2cccc(CSc3nc(-c4ccccc4)c(-c4ccc(S(N)(=O)=O)cc4)o3)c2)CCOCC1 [Example 21]", "2.6 µM"],
  ["COC1(c2cccc(Oc3nc(-c4ccccc4)c(-c4ccc(S(N)(=O)=O)cc4)o3)c2)CCOCC1 [Example 5]", "< 0.1 µM"],
  ["COC(=O)C(Cc1cccc(C2(OC)CCOCC2)c1)c1nc(-c2ccccc2)c(-c2ccc(S(N)(=O)=O)cc2)o1 (stereo not shown) [Example 9]", "80 µM"],
  ["COC1(c2cccc(COCc3nc(-c4ccccc4)c(-c4ccc(S(N)(=O)=O)cc4)o3)c2)CCOCC1 [Example 17]", "> 100 µM"],
  ["COC1(c2cc(F)cc(OCc3nc(-c4ccc(F)cc4)c(-c4ccc(S(C)(=O)=O)cc4)o3)c2)CCOCC1 [Example 3]", "> 100 µM"],
  ["COC1(c2cc(F)cc(OCc3cc(-c4ccc(Cl)cc4)n(-c4ccc(S(N)(=O)=O)cc4)n3)c2)CCOCC1 [Example 1]", "38 µM"],
  ["COC1(c2cc(F)cc(OCC#Cc3ccc(Cc4nc(-c5ccccc5)c(-c5ccc(S(N)(=O)=O)cc5)o4)cc3)c2)CCOCC1 [Example 12]", "> 100 µM"],
  ["COC1(c2cc(F)cc(OCc3onc(-c4ccccc4)c3-c3ccc(S(N)(=O)=O)cc3)c2)CCOCC1 [Example 16]", "> 100 µM"]
]}

// each molecule listed below needs its IC50
1. COC1(c2cc(F)cc(Oc3nc(-c4ccccc4)c(-c4ccc(S(N)(=O)=O)cc4)o3)c2)CCOCC1 [Example 4]
2. COC1(c2cc(F)cc(OCC(=O)NCCc3nc(-c4ccccc4)c(-c4ccc(S(N)(=O)=O)cc4)o3)c2)CCOCC1 [Example 22]
3. COC1(c2cc(F)cc(OCc3nc(-c4ccc(F)cc4)c(-c4ccc(S(N)(=O)=O)cc4)o3)c2)CCOCC1 [Example 14]
4. COc1cccc(OCc2cc(-c3ccc(Cl)cc3)n(-c3ccc(S(N)(=O)=O)cc3)n2)c1 [Example 7]

["< 0.1 µM", "> 100 µM", "5 µM", "3.8 µM"]

Hi! Can you tell me IC50 for each of these molecules?
1. COC1(c2cccc(OCc3nc(-c4ccc(F)cc4)c(-c4ccc(S(C)(=O)=O)cc4)o3)c2)CCOCC1 [Example 2]
2. COC1(c2cc(F)cc(OCc3nc(-c4ccccc4)c(-c4ccc(S(N)(=O)=O)cc4)o3)c2)CCOCC1 [Example 8]

1: > 10 µM; 2: 1.3 µM

* * *

Can you tell me IC50 for the items I'm about to list?
Assay target: 5-lipoxygenase (5-LO) (Homo sapiens, UniProt P09917)
Construct: calcium ionophore-induced Leukotriene B4 (LTB4) production in human whole blood; endogenous in cells
Experiment notes: Assay for 5-lipoxygenase activity: calcium ionophore-induced LTB4 production in human whole blood
Cond: A-23187 (20 μg/ml)-induced LTB4 in human whole blood; mean IC50
One number for each entry, in nM.

{"columns": ["Molecule", "IC50 [nM]"],
 "data": [
  ["COC1(c2cc(F)cc(OCc3cc(-c4ccc(Cl)cc4)n(-c4ccc(S(N)(=O)=O)cc4)n3)c2)CCOCC1 [Example 1]", 150]
]}

// batch mode: one IC50 value per listed entry
1. COc1cccc(OCc2cc(-c3ccc(Cl)cc3)n(-c3ccc(S(N)(=O)=O)cc3)n2)c1 [Example 7]
2. COC1(c2cc(F)cc(OCc3nc(-c4ccc(F)cc4)c(-c4ccc(S(C)(=O)=O)cc4)o3)c2)CCOCC1 [Example 3]

650
20

* * *

I'd appreciate it if you could supply pIC50 values for the items below.
Assay target: 5-lipoxygenase (5-LO) (Homo sapiens)
Construct: calcium ionophore-induced Leukotriene B4 (LTB4) production in human whole blood; endogenous in cells
Sequence (P09917 1-674): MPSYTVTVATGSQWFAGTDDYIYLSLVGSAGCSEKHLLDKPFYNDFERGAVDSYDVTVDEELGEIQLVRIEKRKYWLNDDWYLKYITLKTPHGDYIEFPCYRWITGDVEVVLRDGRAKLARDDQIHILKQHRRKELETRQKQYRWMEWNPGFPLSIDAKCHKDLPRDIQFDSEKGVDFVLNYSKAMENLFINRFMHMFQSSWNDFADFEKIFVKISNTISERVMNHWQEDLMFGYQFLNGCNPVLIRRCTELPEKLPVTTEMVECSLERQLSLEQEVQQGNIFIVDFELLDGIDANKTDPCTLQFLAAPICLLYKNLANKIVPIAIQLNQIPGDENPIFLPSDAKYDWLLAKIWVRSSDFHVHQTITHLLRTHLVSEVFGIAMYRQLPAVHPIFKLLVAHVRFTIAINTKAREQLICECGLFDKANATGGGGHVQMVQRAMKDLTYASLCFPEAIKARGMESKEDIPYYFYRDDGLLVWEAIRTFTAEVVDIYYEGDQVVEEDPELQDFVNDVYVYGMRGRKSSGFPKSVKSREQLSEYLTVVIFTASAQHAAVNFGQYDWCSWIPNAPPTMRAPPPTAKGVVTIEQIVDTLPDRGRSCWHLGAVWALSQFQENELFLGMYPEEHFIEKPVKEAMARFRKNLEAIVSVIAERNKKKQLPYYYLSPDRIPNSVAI
Experiment notes: Assay for 5-lipoxygenase activity: calcium ionophore-induced LTB4 production in human whole blood
Cond: A-23187 (20 μg/ml)-induced LTB4 in human whole blood; mean IC50
Give bare numbers, as −log10 of the molar value.

{"columns": ["Cpd smiles", "Value reported"],
 "data": [
  ["COC1(c2cc(F)cc(OCc3nc(-c4ccc(F)cc4)c(-c4ccc(S(N)(=O)=O)cc4)o3)c2)CCOCC1", 6.70]
]}

Below: the item to evaluate.
# query: pIC50 | item COc1cccc(SCc2cc(-c3ccc(Cl)cc3)n(-c3ccc(S(N)(=O)=O)cc3)n2)c1 | system: 5-lipoxygenase (5-LO) (Homo sapiens)
6.36
